Tested on: NCI-H23
experimental_details: Tumor cell viability (TABLE 1)
Format: cell-based
protocol_conditions: Homo sapiens, read-out: EC50 (50% reduction in cell viability); NCI-H23 (Non-Small Cell Lung); serum-free conditions, 48 hour treatment; mean ± SEM
measured_property: EC50 (µM)
Write it as a number; the unit µM goes unstated.

Ask: Supply EC50 value. Item: CN(C)CC[C@H](CSc1ccccc1)Nc1ccc(S(=O)(=O)NC(=O)c2ccc(N3CCN(Cc4ccccc4-c4ccc(Cl)cc4)CC3)cc2)cc1[N+](=O)[O-]
Result: 7.4

###

Tested on: RXF-393
experimental_details: Tumor cell viability (TABLE 1)
Assay type: cell-based
protocol_conditions: Homo sapiens, read-out: EC50 (50% reduction in cell viability); RXF-393 (Renal); serum-free conditions, 48 hour treatment; mean ± SEM
measured_property: pEC50
The value called pEC50 is obtained by taking minus log10 of the concentration in mol/L.

Ask: Supply pEC50 value. Item: CN(C)CC[C@H](CSc1ccccc1)Nc1ccc(S(=O)(=O)NC(=O)c2ccc(N3CCN(Cc4ccccc4-c4ccc(Cl)cc4)CC3)cc2)cc1[N+](=O)[O-]
Result: 5.54

###

Test system: BT-549
experimental_details: Tumor cell viability (TABLE 1)
Format: cell-based
protocol_conditions: Homo sapiens, read-out: EC50 (50% reduction in cell viability); BT-549 (Breast); serum-free conditions, 48 hour treatment; mean ± SEM
measured_property: EC50 (µM)
Write it as a number; the unit µM goes unstated.

Ask: Supply EC50 value. Item: CN(C)CC[C@H](CSc1ccccc1)Nc1ccc(S(=O)(=O)NC(=O)c2ccc(N3CCN(Cc4ccccc4-c4ccc(Cl)cc4)CC3)cc2)cc1[N+](=O)[O-]
Result: 6.5

###

Test system: ACHN
experimental_details: Tumor cell viability (TABLE 1)
Format: cell-based
protocol_conditions: Homo sapiens, read-out: EC50 (50% reduction in cell viability); ACHN (Renal); serum-free conditions, 48 hour treatment
measured_property: pEC50
The value called pEC50 is obtained by taking minus log10 of the concentration in mol/L.

Ask: Write down the reported pEC50 (system: ACHN) of CN(C)CC[C@H](CSc1ccccc1)Nc1ccc(S(=O)(=O)NC(=O)c2ccc(N3CCN(Cc4ccccc4-c4ccc(Cl)cc4)CC3)cc2)cc1[N+](=O)[O-] [EXAMPLE 2]
Result: 6.00

###

Test system: NCI/ADR-RES
experimental_details: Tumor cell viability (TABLE 1)
Type: cell-based
protocol_conditions: Homo sapiens, read-out: EC50 (50% reduction in cell viability); NCI/ADR-RES (Breast); serum-free conditions, 48 hour treatment
measured_property: EC50

Ask: Write down the reported EC50 (system: NCI/ADR-RES) of CN(C)CC[C@H](CSc1ccccc1)Nc1ccc(S(=O)(=O)NC(=O)c2ccc(N3CCN(Cc4ccccc4-c4ccc(Cl)cc4)CC3)cc2)cc1[N+](=O)[O-]
Result: > 10 µM

###

System: OVCAR-4
experimental_details: Tumor cell viability (TABLE 1)
Type: cell-based
protocol_conditions: Homo sapiens, read-out: EC50 (50% reduction in cell viability); OVCAR-4 (Ovarian); serum-free conditions, 48 hour treatment; mean ± SEM
measured_property: EC50 (µM)
Write it as a number; the unit µM goes unstated.

Ask: Write down the reported EC50 (system: OVCAR-4) of CN(C)CC[C@H](CSc1ccccc1)Nc1ccc(S(=O)(=O)NC(=O)c2ccc(N3CCN(Cc4ccccc4-c4ccc(Cl)cc4)CC3)cc2)cc1[N+](=O)[O-]
Result: 22
